Assay: yeast display, Sf9 membrane polyspecificity reagent, FACS + sequencing; frameworks hold sequencing errors
measurement_type: polyreactivity (PSR sort gate)

Field: example entries. Status: answers known.
# polymer_sequence, measurement_type, measured_result
data = [
    ("QVQLVESGGGLVQAGGSLRLSCAASGLTFYRNVMGWYRQAPGKERELVAVITSGGRTNYADSVKGRFTISRDNAKNTVYLQMNSLKPEDTAVYYCNTALSSRSNKMYYWGQGTQVTVSS", "polyreactivity (PSR sort gate)", "high polyreactivity"),
    ("QVQLVESRVGLVQAGGSLRLSCAASGFTFGHYVMGWYRQAPGKERELVAAITLSGGGTYYADSVKGRFTISRDNAKNTVYLQMNSLKPEDTAVYYCAAVGGEHAKKTYSRYKVDYWGQGTQVTVSS", "polyreactivity (PSR sort gate)", "low polyreactivity"),
    ("QVQLVESGGGLVQAGGSLRLSCAASGSTFYKYAMGWYRQATGKERELVASTYADSVKGRFTISRDNAKNTVYLQMNSLKPEDTAVYYCAKDTASGPYDYWGQGTQVTVSS", "polyreactivity (PSR sort gate)", "low polyreactivity"),
    ("QVQLVESGGGLVQAGGSLRLSCAASGFTFWYYAMGWYRQAPGKERELVATITSGGRTSYADSVKGRFTISRDNAKNTVYLQMNSLKPEDTAVYYCAAVARYTPGYGYWGQGTQVTVSS", "polyreactivity (PSR sort gate)", "high polyreactivity"),
    ("QVQLVESGGGLVQAGGSLRVSCAASGSTFCSNAKGWYRQAPGKERELVAAISSGGSTNYADSVKGRFTISRDNAKNTVYLQMYSLKPEDTAVYYCAADRSPEYYWGQGTQVTVSS", "polyreactivity (PSR sort gate)", "low polyreactivity"),
]

Query sequence follows.
Prompt line: Query: polyreactivity (PSR sort gate); subject: "QVQLVDSGGGLVQAGGSLRLSCAASGRTFRSNAMGWYRQAPGKERELVAAITGSGGRTYYADSVKGRFTISRDNAKNTVYLQMNSLKPEDTAVYYCAARGRAHWHYDDWGQGTQVTVSS"
Response line: high polyreactivity

Values from the nanobody polyreactivity screen of Harvey et al. (2022)
